Reference source for all entries: ChEMBL document CHEMBL1136032

- System: MRC5
- measurement.notes: Cytotoxicity against human diploid embryotic cell line (MRC-5)
- Type: functional, cell-based
- setup.conditions: Homo sapiens, MRC5
readout.kind: IC50

smiles_str=CO\C=C(C(=O)OC)/C(C)=C(\C=C\c1ccc(OC)c(OC)c1)OC readout_kind=IC50 test_value="12 µM"
smiles_str=C=CC(C)(C)O[C@H]1COc2ccc(/C=C/C(OC)=C(C)\C(=C/OC)C(=O)OC)cc2OC1(C)C readout_kind=IC50 test_value="0.36 µM"
smiles_str=CO\C=C(C(=O)OC)/C(C)=C(\C=C\c1cccc2ccccc12)OC readout_kind=IC50 test_value="> 100 µM"
smiles_str=CO\C=C(C(=O)OC)/C(C)=C(\C=C\c1ccc(OC)cc1)OC readout_kind=IC50 test_value="35 µM"
smiles_str=CO\C=C(C(=O)OC)/C(C)=C(\C=C\c1ccc2c(c1)OCO2)OC readout_kind=IC50 test_value="> 100 µM"
smiles_str=CO\C=C(C(=O)OC)/C(C)=C(\C=C\c1cccc(OC)c1)OC readout_kind=IC50 test_value="27 µM"

Next compound, IC50 to be filled in.
Asked: I have this compound here, CO\C=C(C(=O)OC)/C(C)=C(\C=C\c1ccc2ccccc2c1)OC , and I need its recorded IC50.
Given back: > 100 µM

###

- Tested on: Saccharomyces cerevisiae
- measurement.notes: Compound was tested for the antifungal activity against Saccharomyces cerevisiae (IAM4861) at a concentration of 1 ug/disk; zone of inhibition was measured after 48 hr incubation; incomplete inhibition observed
- Format: functional
# Diameter of inhibition zone per record follows

Asked: Dear colleague, I am looking for the recorded Diameter of inhibition zone of the following compound: CO\C=C(C(=O)OC)/C(C)=C(\C=C\c1ccccc1)OC
Given back: 40 mm

Asked: Could you tell me which Diameter of inhibition zone is on file for CO\C=C(C(=O)OC)/C(C)=C(\C=C\c1cccc(OC)c1)OC ?
Given back: 29 mm

Asked: Bench note: what Diameter of inhibition zone did CO\C=C(C(=O)OC)/C(C)=C(\C=C\c1ccc(OC)cc1)OC show?
Given back: 36 mm

Asked: # get_value(readout='Diameter of inhibition zone', item= CO\C=C(C(=O)OC)/C(C)=C(\C=C\c1ccc(OC)c(OC)c1)OC )
Given back: 38 mm

Asked: Could you share which Diameter of inhibition zone value was measured for CO\C=C(C(=O)OC)/C(C)=C(\C=C\c1ccc2c(c1)OCO2)OC ?
Given back: 36 mm

###

Reported Diameter of inhibition zone values follow for various compounds
- System: Penicillium citrinum
- measurement.notes: Compound was tested for the antifungal activity against Penicillium citrinum (R-3703) at a concentration of 10 ug/disk; zone of inhibition was measured after 48 h incubation.
- Type: functional
I only need the number, in mm, no unit after it.

smiles_str=CO\C=C(C(=O)OC)/C(C)=C(\C=C\c1ccccc1)OC readout_kind="Diameter of inhibition zone" test_value=28
smiles_str=CO\C=C(C(=O)OC)/C(C)=C(\C=C\c1cccc(OC)c1)OC readout_kind="Diameter of inhibition zone" test_value=25
smiles_str=CO\C=C(C(=O)OC)/C(C)=C(\C=C\c1ccc(OC)c(OC)c1)OC readout_kind="Diameter of inhibition zone" test_value=22
smiles_str=CO\C=C(C(=O)OC)/C(C)=C(\C=C\c1cccc2ccccc12)OC readout_kind="Diameter of inhibition zone" test_value=17
smiles_str=CO\C=C(C(=O)OC)/C(C)=C(\C=C\c1ccc2c(c1)OCO2)OC readout_kind="Diameter of inhibition zone" test_value=18
smiles_str=CO\C=C(C(=O)OC)/C(C)=C(\C=C\c1ccc2ccccc2c1)OC readout_kind="Diameter of inhibition zone" test_value=19

Then this compound:
Asked: Requested field: Diameter of inhibition zone. Item: CO\C=C(C(=O)OC)/C(C)=C(\C=C\c1ccc(OC)cc1)OC
Given back: 29

###

- Tested on: MRC5
- measurement.notes: Cytotoxicity against the human diploid embryotic cell line (MRC-5)
- Type: functional, cell-based
readout.kind: IC50 (µM)
// return numeric value only (unit: µM, not printed)

Asked: Please report the recorded IC50 for CO\C=C(C(=O)OC)/C(C)=C(\C=C\c1ccccc1)OC .
Given back: 34
